Reference source for all entries: PubChem BioAssay AID292

- System: B6C3F1 mice, ip Sarcoma M5076, median survival T/C
- assay.comment: NCI In Vivo Anticancer Drug Screen. Data for tumor model Sarcoma M5076 (intraperitoneal) in B6C3F1 mice
- cond: endpoint: median survival time; dose: 100.0 mg/kg/injection; schedule: Q04DX004 (ip); vehicle: Klucel + Tween-80; higher = longer survival
- Protocol: The antitumor activity of compounds was measured in mice bearing transplantable tumors. Survival or tumor size were measured and the results are expressed as the measurement made in the treated group (T) divided by the measurement made in the vehicle treated control group (C). The tumor model used in this assay is Sarcoma M5076 (intraperitoneal) in B6C3F1 mice
Toxic doses and inconclusive results are not listed.
I'd appreciate it if you could supply T/C values for the items below.

INSERT INTO results (compound, reported_metric, reading) VALUES
  ('CCCCCCCCCCCC1C(C#N)C(=O)NC(=O)C1C#N (stereo unspecified)', 'T/C', '93 % of control'),
  ('O=C(Nc1ccc([N+](=O)[O-])cc1)C1C(=O)C(=O)N(c2ccc([N+](=O)[O-])cc2)C1=O (stereo unspecified)', 'T/C', '104 % of control'),
  ('CC(=O)C1C(=O)C(=O)N(c2cc(C)ccc2O)C1=O (stereo unspecified)', 'T/C', '100 % of control');

The following compounds each have a reported value; give each one's T/C.
1. CCN(CC)C(=Nc1ccc(Cl)c(Cl)c1)SC(NC=O)=C(Cl)Cl
2. O=C(O)c1ccc(NC(=O)C2C(=O)C(=O)N(c3ccc(C(=O)O)cc3)C2=O)cc1 (stereo unspecified)
3. N#CC1C(=O)NC(=O)C(C#N)C1CCc1ccccc1 (stereo unspecified)

1: 97 % of control; 2: 100 % of control; 3: 97 % of control

###

For each entry below, report its T/C value.
- Test system: B6C3F1 mice, ip Sarcoma M5076, median survival T/C
- assay.comment: NCI In Vivo Anticancer Drug Screen. Data for tumor model Sarcoma M5076 (intraperitoneal) in B6C3F1 mice
- cond: endpoint: median survival time; dose: 75.0 mg/kg/injection; schedule: Q04DX004 (ip); vehicle: Klucel (hydroxypropylcellulose) (HPC); higher = longer survival
Inconclusive results and toxic doses are left out.

INSERT INTO measurements (molecule, reported_metric, reading) VALUES
  ('O=C1CN2Cc3c(sc4c3CCCC4)N=C2N1', 'T/C', '104 % of control');

For each of the items listed, what is its T/C?
1. CSC1=NCc2c(sc3c2CCCC3)N1
2. COc1ccc(-n2c(SCC(=O)NC(=O)Nc3ccccc3)nc3c(Br)cc(Br)cc3c2=O)cc1
3. Cn1cnc([N+](=O)[O-])c1SCC(=O)O
4. CC1(C)CC(OS(C)(=O)=O)CC(C)(C)N1O
5. O=C(Nc1cccc(C(F)(F)F)c1)C(Cl)=C(Cl)Cl
6. COc1ccc(CCN2C(=O)C(=O)N(c3cccc4c(N5C(=O)C(=O)N(CCc6ccc(OC)c(OC)c6)C5=O)cccc34)C2=O)cc1OC
7. Cc1cc(C(F)(F)F)nc2nc3ccccc3n12

1: 103 % of control; 2: 93 % of control; 3: 92 % of control; 4: 102 % of control; 5: 103 % of control; 6: 99 % of control; 7: 95 % of control

For every listed record, write down its T/C.
1. CC(=O)N1CN=C2Sc3ccccc3N2C1
2. Cn1c2ccccc2c2oc(CO)cc(=O)c21
3. COc1ccc(-c2nnc3cc(C)n4nnnc4n23)cc1OC
4. O=c1[nH]cnc2n[nH]nc12
5. CNC(=O)c1ccccc1CNC(=S)Nc1cccc(C)c1
6. CN1CCc2c(c3ccccc3c3ccccc23)C1
7. O=c1oc2c(O)c(O)cc3c(=O)oc4c(O)c(O)cc1c4c23
8. Nc1nc(=O)nc2[nH]c3c4cccc5cccc(c3nc12)c54 (tested in a mixture with another compound)

["103 % of control", "91 % of control", "98 % of control", "104 % of control", "102 % of control", "114 % of control", "123 % of control", "104 % of control"]

Provide each entry's T/C from the list below.
1. O=C(Nc1cccc2ccccc12)C1C(=O)C(=O)N(c2cccc3ccccc23)C1=O (stereo not given)
2. C=CCOc1cc2c(cc1C(C)c1ccc(OC)cc1)OCO2 (stereo not given)

["104 % of control", "113 % of control"]

For each of the molecules below, note its T/C.
1. CN(C)C(=O)SC1=C(c2c(Cl)cccc2Cl)C(=O)c2ccccc21
2. N#CC1C(=O)NC(=S)NC1c1ccc(Cl)c(Cl)c1 (stereo not given)

1. 113 % of control
2. 99 % of control

###

Provide the reported T/C of each item.
- System: B6C3F1 mice, ip Sarcoma M5076, median survival T/C
- assay.comment: NCI In Vivo Anticancer Drug Screen. Data for tumor model Sarcoma M5076 (intraperitoneal) in B6C3F1 mice
- cond: endpoint: median survival time; dose: 150.0 mg/kg/injection; schedule: Q04DX004 (ip); vehicle: saline; higher = longer survival
Toxic doses and inconclusive results are not listed.

INSERT INTO measurements (molecule, reading) VALUES
  ('[N-]=[N+]=NCc1cnnn1C1OC(CO)C(O)C1O (stereo unspecified)', '104 % of control');

Each of the following entries comes with a recorded value; kindly state T/C for each.
1. NC(CCC(=O)NC(CS)C(=O)NCC(=O)O)C(=O)O (stereo unspecified)
2. NC(Cn1ccc(=O)c(O)c1)C(=O)O (stereo unspecified)
3. O=C(NNC(=S)NC1OC(CO)C(O)C(O)C1O)c1cccc(C(=O)NNC(=S)NC2OC(CO)C(O)C(O)C2O)n1 (stereo unspecified)
4. OCC(O)C(O)C(O)C(O)CO (stereo unspecified)
5. CCN(CC)CCOC(=O)c1cc2cc3cc(C(=O)OCCN(CC)CC)c(=O)oc3c(C)c2oc1=O
6. C1CCC(NC2CCCCC2)CC1
7. O=CC(O)C(O)C(O)C(O)CO (stereo unspecified)

100 % of control
109 % of control
101 % of control
111 % of control
93 % of control
103 % of control
96 % of control

###

- Test system: B6C3F1 mice, ip Sarcoma M5076, median survival T/C
- assay.comment: NCI In Vivo Anticancer Drug Screen. Data for tumor model Sarcoma M5076 (intraperitoneal) in B6C3F1 mice
- cond: endpoint: median survival time; dose: 30.0 mg/kg/injection; schedule: Q04DX004 (ip); vehicle: Klucel (hydroxypropylcellulose) (HPC)
Inconclusive results and toxic doses are left out. How the source made its calls: active means survival T/C of 150% or more; inactive means T/C below 125% in these data.
Mark one answer only. Choices: t = active, f = inactive

INSERT INTO measurements (molecule, class) VALUES
  ('COc1cc(C(=O)c2cc3c(cc2C)OCO3)cc(OC)c1OC', 'f');

// outcome(item) with item = NC(=O)C1=CC2C3C=CC2(O)C(=O)OC3O1 (centres undefined)
f

Can you look up the reported call for COC(=O)c1ccc(N=NN(C)COC(C)=O)cc1 for me?
f

Dear all, I need the recorded test outcome for CC1(C)N=C(N)N=C(N)N1c1ccc(CCCCc2ccc(S(=O)(=O)F)cc2Cl)c(Cl)c1 , thank you.
t

###

- Tested on: B6C3F1 mice, ip Sarcoma M5076, median survival T/C
- assay.comment: NCI In Vivo Anticancer Drug Screen. Data for tumor model Sarcoma M5076 (intraperitoneal) in B6C3F1 mice
- cond: endpoint: median survival time; dose: 100.0 mg/kg/injection; schedule: Q04DX004 (ip); vehicle: saline with Tween-80; higher = longer survival
- Method: The antitumor activity of compounds was measured in mice bearing transplantable tumors. Survival or tumor size were measured and the results are expressed as the measurement made in the treated group (T) divided by the measurement made in the vehicle treated control group (C). The tumor model used in this assay is Sarcoma M5076 (intraperitoneal) in B6C3F1 mice
Toxic doses and inconclusive results are not listed.
reported.metric: T/C

Example entries and their recorded answers appear below.
INSERT INTO results (compound, target_entity, reading) VALUES
  ('Nc1ccc2ccc(N)cc2c1', 'B6C3F1 mice, ip Sarcoma M5076, median survival T/C', '89 % of control'),
  ('COCCCNC1=C(C#N)C(=O)NC2(CCCC2)S1', 'B6C3F1 mice, ip Sarcoma M5076, median survival T/C', '97 % of control'),
  ('NC(C(=O)O)C1=CCCC1 (stereo unspecified)', 'B6C3F1 mice, ip Sarcoma M5076, median survival T/C', '98 % of control');

Batch of 7 compounds: report T/C for each.
1. CC(C)NCC(O)CC(c1ccccc1)c1ccccc1 (stereo unspecified)
2. CN(C)c1cc2c(nn1)Nc1ccccc1S2
3. CN1CCOc2c1cnn(CCO)c2=O
4. COc1ccc(/C=N/NC(=O)c2ccc(OCc3nc4ccccc4[nH]3)cc2)cc1
5. N#Cc1c(N)[nH]c2ccc(Sc3ccccc3)cc12
6. C=CCNC(=O)c1ccccc1SC(C)=O
7. Clc1ccccc1C(Cc1c(Cl)cccc1Cl)Cn1ccnc1 (stereo unspecified)

["91 % of control", "88 % of control", "94 % of control", "103 % of control", "116 % of control", "96 % of control", "93 % of control"]
